test: chemical genetic growth profiling, strain panel (AID 1159580);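 further: tested at 20 µM; growth read once vehicle control cultures reached saturation at 30 °C; 1 = growth at the plate median or of vehicle wells; lower values mean less growth of the strain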; conditions: S. cerevisiae deletion strains, growth OD, locus YGL227W, strain vid30, active compounds read low
Out of some 5,500 compounds screened, about 2,000 (36%) were called active. Inconclusive results (about 18%) are left out. Some of the results follow.
RESULT_TYPE: normalized growth
Give a plain numeric answer without units written out.

{"SMILES_REPR": "CCn1cc(C(=O)O)c(=O)c2cnc(N3CCCC3)nc21", "normalized growth": 1.01}
{"SMILES_REPR": "CCn1cc(C(=O)O)c(=O)c2cc3c(cc21)OCO3", "normalized growth": 0.978}
{"SMILES_REPR": "CCOC(N)=O", "normalized growth": 0.983}
{"SMILES_REPR": "O=C(O)c1cc(=O)c2c(OCC(O)COc3cccc4oc(C(=O)O)cc(=O)c34)cccc2o1", "normalized growth": 0.977}
{"SMILES_REPR": "COc1ccc(/C=C/C(=O)c2cc(O)ccc2O)cc1", "normalized growth": 0.103}
{"SMILES_REPR": "CCn1cc(C(=O)O)c(=O)c2ccc(C)nc21", "normalized growth": 0.939}

Now turn to the next compound.
Note to self: normalized growth recorded for COP(=S)(OC)Oc1ccc(SC)c(C)c1 was 1.01

---

assay: chemical genetic growth profiling, strain panel (AID 1159580);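 further: tested at 20 µM; growth read once vehicle control cultures reached saturation at 30 °C; 1 = growth at the plate median or of vehicle wells; lower values mean less growth of the strain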; conditions: S. cerevisiae deletion strains, growth OD, locus YNR052C, strain pop2, active compounds read low
In all, about 5,500 compounds went through this assay and about 2,000 (36%) were called active. Inconclusive results (about 18%) are left out. This is one part of the list.
RESULT_TYPE: normalized growth
Give a plain numeric answer without units written out.

Look over these answered cases.
{"COMPOUND": "COc1ccc2c(c1O)-c1c(OC)c(OC)cc3c1[C@H](C2)N(C)CC3", "VALUE_REPORTED": 1.02}
{"COMPOUND": "NC(=O)N/N=C\\c1ccc([N+](=O)[O-])o1", "VALUE_REPORTED": 0.989}
{"COMPOUND": "Cc1ccc(C(C)C)cc2c(C)ccc1-2", "VALUE_REPORTED": 1.02}
{"COMPOUND": "O=C1O[C@@H](CO)[C@H](O)[C@@H](O)[C@@H]1O", "VALUE_REPORTED": 1.01}
{"COMPOUND": "CC(C)C1=CC2=CCC3[C@](C)(CCC[C@]3(C)C(=O)O)C2CC1 (stereo not given in full)", "VALUE_REPORTED": 0.95}
{"COMPOUND": "O=C1CN(/N=C\\c2ccc([N+](=O)[O-])o2)C(=O)N1", "VALUE_REPORTED": 0.998}
{"COMPOUND": "CC(=O)N[C@@H]1[C@@H](C(O)[C@H](O)CO)O[C@](O)(C(=O)O)C[C@@H]1O (stereo not given in full)", "VALUE_REPORTED": 1.01}
{"COMPOUND": "COc1cc2c(cc1O)CC1c3c(cc(O)c(OC)c3-2)CCN1C (stereo not given)", "VALUE_REPORTED": 1.01}

Note to self: normalized growth recorded for COc1c(C(=O)O)ccc2c1CCC(C)(C)O2 was 0.981

Note to self: normalized growth recorded for CC1(C)CC2C1CCC1(C)OC1CCC2(C)O (stereo not given) was 1.03

Note to self: normalized growth recorded for COc1ccc(-c2cc(C(F)F)nn2-c2ccc(S(N)(=O)=O)cc2)cc1F was 1.03
